Target: particulate guanylyl cyclase receptor A (pGC-A) (Homo sapiens)
Construct: expressed in transfected cells; host or cells: HEK293
Sequence (P16066 33-1061): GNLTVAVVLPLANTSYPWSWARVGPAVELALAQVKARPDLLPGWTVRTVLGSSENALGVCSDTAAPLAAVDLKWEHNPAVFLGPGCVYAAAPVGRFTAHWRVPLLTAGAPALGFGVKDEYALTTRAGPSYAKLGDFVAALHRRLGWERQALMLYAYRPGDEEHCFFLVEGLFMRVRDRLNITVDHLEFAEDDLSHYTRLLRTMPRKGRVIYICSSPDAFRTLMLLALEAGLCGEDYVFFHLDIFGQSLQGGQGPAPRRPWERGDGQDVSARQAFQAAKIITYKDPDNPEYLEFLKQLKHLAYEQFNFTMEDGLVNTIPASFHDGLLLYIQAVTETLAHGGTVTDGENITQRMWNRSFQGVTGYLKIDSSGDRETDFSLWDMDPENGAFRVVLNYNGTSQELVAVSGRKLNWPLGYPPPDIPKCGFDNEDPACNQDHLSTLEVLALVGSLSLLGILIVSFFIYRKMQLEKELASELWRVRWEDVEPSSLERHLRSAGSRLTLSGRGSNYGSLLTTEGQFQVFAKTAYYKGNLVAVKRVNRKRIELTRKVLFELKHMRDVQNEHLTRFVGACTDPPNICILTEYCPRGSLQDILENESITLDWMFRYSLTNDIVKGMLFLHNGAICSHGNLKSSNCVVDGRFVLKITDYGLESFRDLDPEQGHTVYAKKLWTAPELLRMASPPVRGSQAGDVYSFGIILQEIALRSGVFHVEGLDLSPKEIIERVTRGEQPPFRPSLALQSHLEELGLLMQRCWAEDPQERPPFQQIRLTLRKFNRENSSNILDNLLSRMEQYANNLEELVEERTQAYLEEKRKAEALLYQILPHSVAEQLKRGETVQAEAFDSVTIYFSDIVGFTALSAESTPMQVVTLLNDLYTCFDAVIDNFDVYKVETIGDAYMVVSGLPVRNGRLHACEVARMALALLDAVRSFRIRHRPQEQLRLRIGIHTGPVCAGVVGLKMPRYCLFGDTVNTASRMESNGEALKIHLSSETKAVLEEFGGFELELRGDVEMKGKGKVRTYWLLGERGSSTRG
Sequence (P01160 124-151 partner limits assumed): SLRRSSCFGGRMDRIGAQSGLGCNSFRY
Test: cGMP production by HTRF in HEK293 cells overexpressing pGC-A, with ANP
Assay type: cell-based
Details: HEK293, HEK293 cells overexpressing pGC-A; cGMP normalized to maximal amount produced by an EC80 concentration of ANP; read-out: Max efficacy
Answer 0 if Emax is under 90%, and 1 if it is 90% or more.

## Input Quick check: does CN1CCCC(CN2CCCC(C(=O)Nc3nc4c(F)cc(F)cc4s3)C2)C1 (stereo not drawn) have Emax greater than or equal to 90%?
## Output 0

## Input Quick check: does Cc1cccc2nc(NC(=O)C3CCCN(CCN(C)C)C3)sc12 (stereo not drawn) have Emax greater than or equal to 90%?
## Output 1

## Input # check: Emax of CN(C)CCN1CCCC(C(=O)Nc2nc3c(Cl)c(Cl)ccc3s2)C1 (stereo not drawn) is greater than or equal to 90%
## Output 0

## Input Please indicate if the recorded Emax for CN(C)CCN1CCCC(C(=O)Nc2nc3cccc(Cl)c3s2)C1 (stereo not drawn) meets or exceeds 90%.
## Output 0

## Input Exam item: decide whether the reported Emax for CCN(C)C(=O)N1CCCC(C(=O)Nc2nc3c(F)cc(F)cc3s2)C1 (stereo not drawn) is at least 90%.
## Output 0

## Input Has CN1CCC(N2CCCC(C(=O)Nc3nc4c(Br)cccc4s3)C2)C1 (stereo not drawn) a recorded Emax greater than or equal to 90%?
## Output 0

## Input Assess whether reported Emax for CN(C)CCN1CC(O)CC(C(=O)Nc2nc3c(F)cc(F)cc3s2)C1 (stereo not drawn) sits at 90% or higher.
## Output 0

## Input Hi, just wondering whether CN(C)CCCN1CCCCC1C(=O)Nc1nc2c(F)cc(F)cc2s1 (stereo not drawn) shows Emax of 90% or higher.
## Output 1

## Input Quick check: does CN(C)CCN1CCCC(C(=O)Nc2nc3c(F)cccc3s2)C1 (stereo not drawn) have Emax greater than or equal to 90%?
## Output 1

## Input Hi, just wondering whether CN(C)CCN1CC2(C(=O)Nc3nc4c(Cl)cc(F)cc4s3)CCC1CC2 shows Emax of 90% or higher.
## Output 1

## Input Please indicate if the recorded Emax for COc1cc(N2CCCC(C(=O)Nc3nc4c(F)cc(F)cc4s3)C2)ccn1 (stereo not drawn) meets or exceeds 90%.
## Output 1

## Input Given CN(C)CCC1CCCC(C(=O)Nc2nc3c(Cl)cc(F)cc3s2)C1 (stereo not drawn) , state whether its Emax is at least 90%.
## Output 0

## Input Tell me whether Emax is at least 90% here: COC(=O)CN1CCC(N2CCCC(C(=O)Nc3nc4c(F)cc(F)cc4s3)C2)C1 (stereo not drawn)
## Output 1

## Input For this compound, is measured Emax 90% or higher? N[C@@H]1CCCC(C(=O)Nc2nc3c(F)cc(F)cc3s2)C1 (stereo partly drawn)
## Output 0

## Input Please tell me: is the compound CN1CCC(N2CCCC(C(=O)Nc3nc4c(F)cc(F)cc4s3)C2)C1 (stereo not drawn) at or over 90% in terms of Emax?
## Output 0

## Input Evaluate CNC(=O)N1CCCC(C(=O)Nc2nc3c(F)cc(F)cc3s2)C1 (stereo not drawn) : Emax at minimum 90%?
## Output 0

## Input Has CN(C)CCN1CCC(C(=O)Nc2nc3c(F)cc(F)cc3s2)CC1 a recorded Emax greater than or equal to 90%?
## Output 1

Where do the numbers come from? From patent US20250092030A1.
